System: ET-2
Sequence (Q9BYE2 326-559 limits assumed): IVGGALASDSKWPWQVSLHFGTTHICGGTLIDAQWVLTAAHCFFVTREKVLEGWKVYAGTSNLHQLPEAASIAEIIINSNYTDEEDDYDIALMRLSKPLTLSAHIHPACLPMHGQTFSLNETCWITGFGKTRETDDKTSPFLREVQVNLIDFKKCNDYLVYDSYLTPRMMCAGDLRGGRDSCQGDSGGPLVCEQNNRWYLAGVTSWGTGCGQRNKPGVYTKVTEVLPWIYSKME
Conditions: read-out: ET-2 estimated IC50, 30 minute preincubation with 100 nM Kunitz domain
result_type: IC50

1. MAAEMHSFCAFKADPGPCRAMFNRFFFNIFTRQCEEFNYGGCSGNQNRFESLEECKKMCTRDSASSASGDFD [MBP-1E6] ... ~0.4 µM
2. MAAEMHSFCAFKADPGPCRAIMTRFFFNIFTRQCEEFRYGGCLGNQNRFESLEECKKMCTRDSASSASGDFD [MBP-1G11] ... ≥ 1 µM
3. MAAEMHSFCAFKADQGPCRAAISRFFFNIFTRQCEEFVYGGCEGNQNRFESLEECKKMCTRDSASSASGDFD [MBP-1D9] ... ≥ 1 µM
4. MAAEMHSFCAFKADPGQCRAYYRRFFFNIFTRQCEEFVYGGCMGNQNRFESLEECKKMCTRDSASSASGDFD [MBP-1G2] ... ~0.3 µM
